In this section we review reported cell viability values for a set of compounds.
# System: Vero E6
# Method Notes: cell viability relative to DMSO; higher = less toxic
# Assay Conditions: 72 h; 1 nM
All answers are understood in %, so give the number only.

Solved entries (count: 4):
Compound	Measurement Target	Assay Result
COc1cc2nc(N3CCN(C(=O)COc4c(OC)cccc4C(C)C)CC3)nc(N)c2cc1OC	Vero E6	98.8
CCCCOC(=O)c1ccc(N)cc1	Vero E6	94.2
CCO[C@@H]1OC(=O)C[C@@H]1NC(=O)[C@@H]1CCCN1C(=O)[C@@H](NC(=O)c1ccc(N)c(Cl)c1)C(C)(C)C	Vero E6	98.8
CC1CCC(NC(=O)N(CCCl)N=O)CC1 (stereo not drawn)	Vero E6	106

Returns the measured cell viability for the input compound. Input: COc1ccc(-c2cc3nccn3c(Nc3ncccc3C(N)=O)n2)cc1OC
97.4

Request the reported cell viability associated with COC(=O)C1=C(C)NC(C)=C(C(=O)NCCCN2CCC(c3ccccc3)(c3ccccc3)CC2)C1c1ccc([N+](=O)[O-])cc1 (stereo not drawn)
94.8

Dear colleague, I am looking for the recorded cell viability of the following compound: Cc1ccc(NC(=O)C(C)C)cc1C1CCN(Cc2ccc(Oc3ccc(F)c(F)c3)cc2)CC1
106

// cell viability lookup, key: Cc1coc2c1C(=O)C(=O)c1c-2ccc2c1CCCC2(C)C
106

---

# Test system: HepG2
# Method Notes: cell viability relative to DMSO; higher = less toxic
# Assay Conditions: 72 h; 100 nM
The entries below are paired with their reported cell viability.
Please state the figure in %; there is no need to write the unit.

Some solved entries appear below for comparison.
Molecule	Measurement Target	Unit Spec	Assay Result
Nc1nc(N)nc(-c2cc(Cl)ccc2Cl)n1	HepG2	%	94.6
COc1cc2nc(N3CCN(C(=O)COc4c(OC)cccc4C(C)C)CC3)nc(N)c2cc1OC	HepG2	%	103
CC[C@@]1(O)C(=O)OCc2c1cc1n(c2=O)Cc2cc3cc(O)ccc3nc2-1 [10-hydroxycamptothecin]	HepG2	%	31.2

Which cell viability value is on record for CN1CCN(Cc2ccc(Nc3ncc(Cl)c(Nc4ccccc4S(=O)(=O)N(C)C)n3)cc2)CC1 ?
99.8

---

# Test system: Vero E6
# Method Notes: drug sensitivity score (DSS) for viability; higher = more toxic; extreme values may be limits of the assay
# Assay Conditions: 72 h
drug sensitivity score values by entry
Would you mind answering with just the numeric figure?

Answered cases to consult:
Molecule	Assay Result
CC(=O)OCC(=O)[C@@]1(OC(C)=O)[C@@H](C)C[C@H]2[C@@H]3C[C@H](F)C4=CC(=O)C=C[C@]4(C)[C@@]3(F)[C@@H](O)C[C@@]21C [diflorasone-diacetate]	0
Nc1nc(=O)c2nc(CNc3ccc(C(=O)N[C@@H](CCC(=O)O)C(=O)O)cc3)cnc2[nH]1	0
Cn1c(=O)n(-c2ccc(C(C)(C)C#N)cc2)c2c3cc(-c4cnc5ccccc5c4)ccc3ncc21	8.8
CC1=C(C)C(=O)C(C(CCCCCC(=O)O)c2ccccc2)=C(C)C1=O (stereo unspecified)	0
CCn1cnc(C(=O)NC)c1C(=O)NC	0
CC(=O)[C@]1(O)Cc2c(O)c3c(c(O)c2[C@@H](O[C@H]2C[C@H](N)[C@H](O)[C@H](C)O2)C1)C(=O)c1ccccc1C3=O	22
Oc1cccc2cccnc12	0
O[C@H]([C@H](O)[C@@H]1CO1)[C@H]1CO1 [dianhydrogalactitol]	0

As a next step, examine the molecule that follows.
Look at this molecule and give its reported drug sensitivity score. Cc1ccc(=O)n(-c2ccccc2)c1
0
